Recorded values, source patent US20090215778A1.

- assayed.target: HIV Env six-helix bundle (6HB) structure (Human immunodeficiency virus type 1 group M subtype B, UniProt P04579)
- Construct: H9 cells chronically infected with HIV-1 (H9/HIV-1RF); endogenous in cells; host or cells: H9 cells chronically infected with HIV-1 strain RF (Env is made from the virus in the infected cells, not by transfection)
- Sequence (P04579 32-519): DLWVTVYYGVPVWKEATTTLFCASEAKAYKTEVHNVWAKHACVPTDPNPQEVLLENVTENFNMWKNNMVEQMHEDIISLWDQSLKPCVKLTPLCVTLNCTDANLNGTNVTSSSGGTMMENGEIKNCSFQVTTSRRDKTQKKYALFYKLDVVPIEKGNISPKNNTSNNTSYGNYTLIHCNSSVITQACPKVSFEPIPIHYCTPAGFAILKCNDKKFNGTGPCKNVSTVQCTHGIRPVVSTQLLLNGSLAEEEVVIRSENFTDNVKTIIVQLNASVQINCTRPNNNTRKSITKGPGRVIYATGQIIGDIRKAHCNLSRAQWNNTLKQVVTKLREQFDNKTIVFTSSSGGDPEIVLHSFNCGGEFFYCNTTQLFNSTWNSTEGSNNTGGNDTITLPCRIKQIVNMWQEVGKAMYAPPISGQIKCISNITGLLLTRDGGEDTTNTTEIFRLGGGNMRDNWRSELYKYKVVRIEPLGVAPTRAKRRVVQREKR
- Sequence (P04579 520-865): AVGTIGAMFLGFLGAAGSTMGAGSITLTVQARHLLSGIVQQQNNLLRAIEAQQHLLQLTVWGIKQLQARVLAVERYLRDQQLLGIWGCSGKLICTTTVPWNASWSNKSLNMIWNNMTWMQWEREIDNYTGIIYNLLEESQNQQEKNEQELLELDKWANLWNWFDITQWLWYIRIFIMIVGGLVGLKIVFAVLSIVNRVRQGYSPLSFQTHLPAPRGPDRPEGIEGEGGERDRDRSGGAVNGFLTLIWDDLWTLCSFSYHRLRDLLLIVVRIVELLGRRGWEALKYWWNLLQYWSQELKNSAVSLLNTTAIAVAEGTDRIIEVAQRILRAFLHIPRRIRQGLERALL
- protocol.description: Six-helix bundle (6HB) assay
- Format: cell-based, HIV-1 (strain RF)
pIC50: −log10 of the molar value.
endpoint.name: pIC50

Before answering, review these 4 worked examples.
>  <compound>
COc1ccc(-c2nc3c(C(=O)N4CCN(C(CO)c5cccc(NC(C)=O)c5)C[C@H]4C)cnn3c(C(F)(F)F)c2C)cc1 (stereo partly shown)

>  <pIC50>
> 6.00

$$$$
>  <compound>
COc1ccc(-c2nc3c(C(=O)N4CCN(C(CO)c5cnccc5OC)C[C@H]4C)cnn3c(C(F)(F)F)c2C)cc1 (stereo partly shown)

>  <pIC50>
> 6.00

$$$$
>  <compound>
COc1ccc(-c2nc3c(C(=O)N4CCN(C(CO)c5ccc(OC)nc5OC)C[C@H]4C)cnn3c(C(F)(F)F)c2C)cc1 (stereo partly shown)

>  <pIC50>
> 6.00

$$$$
>  <compound>
COc1ccc(-c2nc3c(C(=O)N4CCN(C(CO)c5cc(F)cc(F)c5F)C[C@H]4C)cnn3c(C(F)(F)F)c2C)cc1 (stereo partly shown)

>  <pIC50>
> 6.00

$$$$

State the recorded pIC50 for every item in the following list.
1. COc1ccc(-c2nc3c(C(=O)N4CCN(C(CO)c5ccccc5)CC4)cnn3c(C(F)(F)F)c2C)cc1 (stereo not shown)
2. COc1ccc(-c2nc3c(C(=O)N4CCN(C(C(=O)O)c5ccccc5)C[C@H]4C)cnn3c(C(F)(F)F)c2C)cc1 (stereo partly shown)

1: > 6.00; 2: < 5.00

Consider the compound `COc1ccc(-c2nc3c(C(=O)N4CCN([C@@H](C)c5ccc(NC(N)=O)cc5)C[C@H]4C)cnn3c(C(F)(F)F)c2C)cc1` . State its measured pIC50.
5.00 to 5.96

* * *

- assayed.target: HIV Env six-helix bundle (6HB) structure (Human immunodeficiency virus type 1 group M subtype B)
- Construct: H9 cells chronically infected with HIV-1 (H9/HIV-1RF); endogenous in cells; host or cells: H9 cells chronically infected with HIV-1 strain RF (Env is made from the virus in the infected cells, not by transfection)
- protocol.description: Six-helix bundle (6HB) assay
- Assay type: cell-based, HIV-1 (strain RF)
- experimental.context: read-out: 6HB IC50; H9 cells chronically infected with HIV-1 RF, sCD4-induced six-helix bundle formation
endpoint.name: IC50

Provide measured IC50 value, entry: COc1ccc(-c2nc3c(C(=O)N4CCN([C@@H](CO)c5ccccc5)C[C@H]4C)cnn3c(C(F)(F)F)c2C)cc1 [drawing 44]
< 1 µM

* * *

- assayed.target: HIV Env six-helix bundle (6HB) structure (Human immunodeficiency virus type 1 group M subtype B, UniProt P04579)
- Construct: H9 cells chronically infected with HIV-1 (H9/HIV-1RF); endogenous in cells; host or cells: H9 cells chronically infected with HIV-1 strain RF (Env is made from the virus in the infected cells, not by transfection)
- protocol.description: Six-helix bundle (6HB) assay
- Assay type: cell-based, HIV-1 (strain RF)
pIC50: −log10 of the molar value.
endpoint.name: pIC50

Example cases with answers are listed next.
>  <molecule>
COc1ccc(-c2nc3c(C(=O)N4CCN([C@@H](C)c5sccc5Cl)C[C@H]4C)cnn3c(C(F)(F)F)c2C)cc1

>  <pIC50>
> 6.00

$$$$
>  <molecule>
COc1ccc(-c2nc3c(C(=O)N4CCN([C@@H](C)c5ccn(C)n5)C[C@H]4C)cnn3c(C(F)(F)F)c2C)cc1

>  <pIC50>
5.00 to 5.96

$$$$
>  <molecule>
COc1ccc(-c2nc3c(C(=O)N4CCN(C(CO)c5ccc(C(=O)N(C)C)s5)C[C@H]4C)cnn3c(C(F)(F)F)c2C)cc1 (stereo partly shown)

>  <pIC50>
< 5.00

$$$$
>  <molecule>
COc1ccc(-c2nc3c(C(=O)N4CCN(C(CO)c5ccco5)C[C@H]4C)cnn3c(C(F)(F)F)c2C)cc1 (stereo partly shown)

>  <pIC50>
> 6.00

$$$$
>  <molecule>
CCOc1ccccc1C(CO)N1CCN(C(=O)c2cnn3c(C(F)(F)F)c(C)c(-c4ccc(OC)cc4)nc23)[C@H](C)C1 (stereo partly shown)

>  <pIC50>
> 6.00

$$$$

Provide the reported pIC50 of each entry below, same order.
1. COc1ccc(-c2nc3c(C(=O)N4CCN(C(CO)c5ccccc5C#N)C[C@H]4C)cnn3c(C(F)(F)F)c2C)cc1 (stereo partly shown)
2. COc1ccc(-c2nc3c(C(=O)N4CCN(C(CO)c5ccccc5OC(F)(F)F)C[C@H]4C)cnn3c(C(F)(F)F)c2C)cc1 (stereo partly shown)

1. > 6.00
2. 5.00 to 5.96
